# Offscreen_18hr measurements, system: parent strain (SAWy518)

| compound | assayTarget | Offscreen_18hr |
| --- | --- | --- |
| CCC[C@H](NC(=O)/C(C#N)=C/c1cccc(Br)n1)c1ccccc1 [WP1130] | parent strain (SAWy518) | 0.6544 |
| O=c1c(O)c(-c2ccc(O)c(O)c2)oc2cc(O)cc(O)c12 [Quercetin (Sophoretin)] | parent strain (SAWy518) | 0.7827 |
| CC[C@H](c1ccc(O)cc1)[C@@H](CC)c1ccc(O)cc1 [Hexestrol] | parent strain (SAWy518) | 0.8043 |
| O=C(/C=C/c1ccc(O)cc1)c1ccccc1 [4-hydroxychalcone, reference compound] | parent strain (SAWy518) | 0.8368 |
| CC[n+]1c(/C=C/C=C2/N(C)c3ccccc3C2(C)C)sc2ccccc21.[I-] [AC-93253 iodide] | parent strain (SAWy518) | 0.3559 |
| CCOC(=O)[C@@H](N)Cc1ccc(-c2cc(O[C@H](c3ccc(Cl)cc3-n3ccc(C)n3)C(F)(F)F)nc(N)n2)cc1.O=C(O)CNC(=O)c1ccccc1 [Telotristat Etiprate] | parent strain (SAWy518) | 0.7823 |

----------
Test system: parent strain (SAWy518)
Counter-ions that a name gives are not always drawn.
Rule: Offscreen_24hr below 0.8 gives yes (1). Equal to or above 0.8 gives no (0).

| compound | class |
| --- | --- |
| CCC(C)n1ncn(-c2ccc(N3CCN(c4ccc(OC[C@H]5CO[C@](Cn6cncn6)(c6ccc(Cl)cc6Cl)O5)cc4)CC3)cc2)c1=O (some centres unmarked) [Itraconazole (Sporanox)] | no (0) |
| CC(C)(C)C(=O)C(Oc1ccc(Cl)cc1)n1cncn1 (centres unmarked) | yes (1) |
| CC/C(=C(\c1ccccc1)c1ccc(OCCN(C)C)cc1)c1ccccc1.O=C(O)CC(O)(CC(=O)O)C(=O)O [Tamoxifen Citrate] | no (0) |
| O=c1c2ccccc2[se]n1-c1ccccc1 | yes (1) |
| Br.Br.N=C(N)SCCN [AMINOETHYLISOTHIOUREA DIHYDROBROMIDE] | yes (1) |
| Oc1cc(Cl)ccc1Oc1ccc(Cl)cc1Cl | yes (1) |
| CCN(CC)CCOc1ccc(C(=C(Cl)c2ccccc2)c2ccccc2)cc1 [Clomifene citrate] | no (0) |
| CCCN1CCCC[C@H]1C(=O)Nc1c(C)cccc1C | no (0) |
| CS(=O)(=O)c1ccc(C2=C(c3ccccc3)C(=O)OC2)cc1 [Rofecoxib, reference compound] | no (0) |
| C=CC[C@@H]1/C=C(\C)C[C@H](C)C[C@H](OC)[C@H]2O[C@@](O)(C(=O)C(=O)N3CCCC[C@H]3C(=O)O[C@H](/C(C)=C/[C@@H]3CC[C@@H](O)[C@H](OC)C3)[C@H](C)[C@@H](O)CC1=O)[C@H](C)C[C@@H]2OC | no (0) |
| O=c1cc(O)cc(/C=C/c2ccc(O)c(O)c2)o1 | no (0) |
| O=C1c2ccc(Nc3ccc(F)cc3F)cc2CCc2ccc(OC[C@H](O)CO)cc21 [Skepinone-L] | no (0) |
| CCN(CC)C(=O)C1(c2ccccc2)CC1CN (centres unmarked) | no (0) |
| O=C(O)c1ccc(-n2nc(-c3ccccc3O)nc2-c2ccccc2O)cc1 | no (0) |

----------
# Offscreen_42hr measurements, system: parent strain (SAWy518)

| compound | assayTarget | Offscreen_42hr |
| --- | --- | --- |
| O=C(O)/C=C/C=C/c1ccccc1 | parent strain (SAWy518) | 0.827 |
| CC1=C(C)C(=O)C(C(CCCCCC(=O)O)c2ccccc2)=C(C)C1=O (centres unmarked) | parent strain (SAWy518) | 0.927 |
| CCn1cc(-c2ccnc3[nH]c(-c4cccc(CN(C)C)c4)cc23)c(-c2ccc(NC(=O)N(C)C)cc2)n1 | parent strain (SAWy518) | 0.9396 |
| COc1c(C)c2c(c(O)c1C/C=C(\C)CCC(=O)OCCN1CCOCC1)C(=O)OC2 [MYCOPHENOLATE MOFETIL] | parent strain (SAWy518) | 0.9179 |
| CN(C)c1ccc2nc3ccc(=[N+](C)C)cc-3sc2c1.O.O.O.[Cl-] | parent strain (SAWy518) | 1.0182 |
| COc1cc(C)c2c(=O)cc(-c3ccccc3)oc2c1 | parent strain (SAWy518) | 0.9442 |
| O=c1c2ccccc2[se]n1-c1ccccc1 | parent strain (SAWy518) | 0.0412 |
| C[C@@H]1CC[C@@]2(OC1)O[C@H]1[C@@H](O)[C@H]3[C@@H]4CC[C@H]5C[C@@H](O[C@@H]6O[C@H](CO)[C@H](O[C@@H]7O[C@H](CO)[C@@H](O)[C@H](O[C@@H]8OC[C@@H](O)[C@H](O)[C@H]8O)[C@H]7O[C@@H]7O[C@H](CO)[C@H](O)[C@H](O[C@@H]8O[C@H](CO)[C@@H](O)[C@H](O)[C@H]8O)[C@H]7O)[C@H](O)[C@H]6O)[C@H](O)C[C@]5(C)[C@H]4CC[C@]3(C)[C@H]1[C@@H]2C | parent strain (SAWy518) | 0.9758 |
| O=C(O)Cc1cc(I)c(Oc2ccc(O)c(I)c2)c(I)c1 | parent strain (SAWy518) | 0.855 |
| CC(C)(C)CC(C)(C)c1ccc(OCCOCC[N+](C)(C)Cc2ccccc2)cc1 | parent strain (SAWy518) | 0.9542 |
| COc1ccc(CCN(C)CCCOc2ccc(S(=O)(=O)c3c(C(C)C)c4ccccc4n3C)cc2)cc1OC.O=C(O)C(=O)O | parent strain (SAWy518) | 0.9635 |

----------
# Offscreen_18hr measurements, system: parent strain (SAWy518)
measuredAttribute: Offscreen_18hr

| compound | obsValue |
| --- | --- |
| COc1cc(C(=O)NS(=O)(=O)c2ccccc2C)ccc1Cc1cn(C)c2ccc(NC(=O)OC3CCCC3)cc12 | 0.8379 |
| COc1cccc2c1[C@@H]1CN(CCCCn3c(=O)[nH]c4c(sc5ncc(-c6ccccc6)nc54)c3=O)C[C@@H]1CO2 | 0.7871 |
| CCN(CC)CCNC(=O)c1c(C)[nH]c(/C=C2\C(=O)Nc3ccc(F)cc32)c1C.O=C(O)C[C@H](O)C(=O)O [Sunitinib Malate] | 0.8179 |

----------
Some compounds, each annotated with its measured Offscreen_42hr.
System: parent strain (SAWy518)

| compound | assayTarget | Offscreen_42hr |
| --- | --- | --- |
| N.N.N.N.N.N.N.N.N.N.N.N.N.N.[Cl-].[Cl-].[Cl-].[Cl-].[Cl-].[Cl-].[O-2].[O-2].[Ru+3].[Ru+3].[Ru+4] [Ruthenium red] | parent strain (SAWy518) | 0.9382 |
| CC/C(=C(\c1ccccc1)c1ccc(OCCN(C)C)cc1)c1ccccc1.O=C(O)CC(O)(CC(=O)O)C(=O)O [Tamoxifen Citrate] | parent strain (SAWy518) | 0.9507 |
| CCCCCCCCc1ccc(CCC(N)(CO)CO)cc1.Cl [Fingolimod (FTY720)] | parent strain (SAWy518) | 0.7799 |
| CCCCCCc1ccc(O)cc1O [HEXYLRESORCINOL] | parent strain (SAWy518) | 0.8874 |
| O=C(O)Cc1ccccc1Nc1c(Cl)cccc1Cl [Diclofenac, reference compound] | parent strain (SAWy518) | 0.9387 |
| COc1ccc2c(c1)CC[C@@H]1[C@@H]2CC[C@]2(C)[C@H](NCCCCCCN3C(=O)C=CC3=O)CC[C@@H]12 [U 73122] | parent strain (SAWy518) | 0.9704 |
| Nc1[nH]c(=O)ncc1F [FLUCYTOSINE] | parent strain (SAWy518) | 0.9452 |
| CCOC(=O)[C@H](C)C[C@@H](Cc1ccc(-c2ccccc2)cc1)NC(=O)CCC(=O)O [AHU377] | parent strain (SAWy518) | 0.9874 |
| O=C(/C=C/c1ccccc1)c1ccc(O)cc1 [4'-HYDROXYCHALCONE] | parent strain (SAWy518) | 0.9266 |
| COc1c(C)c2c(c(O)c1C/C=C(\C)CCC(=O)O)C(=O)OC2 [Mycophenolic (Mycophenolate)] | parent strain (SAWy518) | 0.951 |
| O=C(O)Cn1c(C(=O)Nc2nc(-c3ccccc3Cl)cs2)cc2ccccc21 [SR-27897] | parent strain (SAWy518) | 0.9619 |
| C=CC(C1=CC(=O)C=CC1=O)c1ccccc1 (stereo not drawn) [Dalbergione] | parent strain (SAWy518) | 0.9762 |
| Cc1cc(C(C)(C)CC(C)(C)C)ccc1OCCOCC[N+](C)(C)Cc1ccccc1 [Methylbenzethonium] | parent strain (SAWy518) | 0.932 |
| COc1ccc2c(c1)OCc1c-2oc2cc(OC)ccc12 [Dehydrovariabilin] | parent strain (SAWy518) | 0.938 |
| NCCS(=O)(=O)O [Taurine] | parent strain (SAWy518) | 0.9826 |
| O=c1c(O)c(-c2ccc(O)c(O)c2)oc2cc(O)cc(O)c12 [Quercetin, reference compound] | parent strain (SAWy518) | 0.9377 |
| CCN(CC)C(=S)SSC(=S)N(CC)CC [Tetraethylthiuram disulfide] | parent strain (SAWy518) | 0.0415 |
| COc1c(O)cc2oc3cc(O)c(CC=C(C)C)c(O)c3c(=O)c2c1CC=C(C)C [alpha-mangostin] | parent strain (SAWy518) | 0.9296 |
| CC1=C(CC(=O)O)c2cc(F)ccc2/C1=C\c1ccc([S+](C)[O-])cc1 (stereo not drawn) [Sulindac, reference compound] | parent strain (SAWy518) | 0.9739 |
| COc1c(C)c2c(c(O)c1C/C=C(\C)CCC(=O)O)C(=O)OC2 [MYCOPHENOLIC ACID] | parent strain (SAWy518) | 0.9254 |
| N#Cc1c(Cl)c(Cl)c(Cl)c(C#N)c1Cl [CHLOROTHALONIL] | parent strain (SAWy518) | 0.9297 |
